- Tested on: U937 cells (human monocytic cell line)
- Run description: BzATP-induced IL-1β secretion inhibition in PMA-differentiated U937 cells
- Format: cell-based
- Condition notes: U-937, U937 cells differentiated with PMA, read-out: IL-1β production inhibition grade (IC50)
Value kind: IC50

Compound	Tested system	Result
C[C@H](CCC(=O)N[C@H]1CCCC[C@H]1S(=O)(=O)O)[C@H]1CC[C@H]2[C@@H]3CC[C@@H]4CC(=O)CC[C@]4(C)[C@H]3CC[C@]12C [NC30027]	U937 cells (human monocytic cell line)	< 0.05 µM

# input compound: CC[C@H]1[C@@H](O)[C@@H]2[C@H](CC[C@]3(C)[C@@H]([C@H](C)CCC(=O)NCCCO)CC[C@@H]23)[C@@]2(C)CC[C@@H](O)C[C@@H]12 [NC40003] ; wanted: its IC50
≥ 0.2 µM

# input compound: C[C@H](CCC(=O)N1CCC[C@@H]1CS(=O)(=O)O)[C@H]1CC[C@H]2[C@@H]3CC[C@@H]4C[C@H](O)CC[C@]4(C)[C@H]3C[C@H](O)[C@]12C [NC10036] ; wanted: its IC50
0.1 to 0.2 µM

# input compound: CC(C)[C@@H](CS(=O)(=O)O)NC(=O)CC[C@@H](C)[C@H]1CC[C@H]2[C@@H]3CC[C@@H]4C[C@H](O)CC[C@]4(C)[C@H]3CC[C@]12C [NC10067] ; wanted: its IC50
≥ 0.2 µM

# input compound: C[C@H](CCC(=O)N1CC[C@@H](S(=O)(=O)O)C1)[C@H]1CC[C@H]2[C@@H]3CC[C@@H]4C[C@H](O)CC[C@]4(C)[C@H]3C[C@H](O)[C@]12C [NC10049] ; wanted: its IC50
< 0.05 µM

# input compound: C[C@H](CS(=O)(=O)O)NC(=O)CC[C@@H](C)[C@H]1CC[C@H]2[C@@H]3CC[C@@H]4C[C@H](O)CC[C@]4(C)[C@H]3CC[C@]12C [NC10085] ; wanted: its IC50
≥ 0.2 µM

# input compound: C[C@H](CCC(=O)NC(C)(C)CS(=O)(=O)O)[C@H]1CC[C@H]2[C@@H]3CC[C@@H]4CC(=O)CC[C@]4(C)[C@H]3CC[C@]12C [NC30013] ; wanted: its IC50
≥ 0.2 µM

# input compound: C[C@H](CCC(=O)N[C@H](Cc1ccccc1)CS(=O)(=O)O)[C@H]1CC[C@H]2[C@@H]3CC[C@@H]4CC(=O)CC[C@]4(C)[C@H]3CC[C@]12C [NC30015] ; wanted: its IC50
≥ 0.2 µM

# input compound: C[C@H](CCC(=O)N[C@H](CO)CS(=O)(=O)O)[C@H]1CC[C@H]2[C@@H]3CC[C@@H]4CC(=O)CC[C@]4(C)[C@H]3CC[C@]12C [NC30025] ; wanted: its IC50
≥ 0.2 µM

# input compound: C[C@H](CCC(=O)N1CCC(S(=O)(=O)O)CC1)[C@H]1CC[C@H]2[C@@H]3CC[C@@H]4C[C@H](O)CC[C@]4(C)[C@H]3CC[C@]12C [NC10062] ; wanted: its IC50
< 0.05 µM

# input compound: C[C@H](CCC(=O)N[C@@H](CO)CS(=O)(=O)O)[C@H]1CC[C@H]2[C@@H]3CC[C@@H]4CC(=O)CC[C@]4(C)[C@H]3CC[C@]12C [NC30024] ; wanted: its IC50
≥ 0.2 µM

# input compound: C[C@H](CCC(=O)N1CCC[C@@H](S(=O)(=O)O)C1)[C@H]1CC[C@H]2[C@@H]3CC[C@@H]4C[C@H](O)CC[C@]4(C)[C@H]3C[C@H](O)[C@]12C [NC10027] ; wanted: its IC50
< 0.05 µM

# input compound: CC[C@H]1[C@@H](O)[C@@H]2[C@H](CC[C@]3(C)[C@@H]([C@H](C)CCC(=O)N[C@H](CC(C)C)CS(=O)(=O)O)CC[C@@H]23)[C@@]2(C)CC[C@@H](O)C[C@@H]12 [NC40031] ; wanted: its IC50
≥ 0.2 µM

# input compound: CC[C@H]1[C@@H](O)[C@@H]2[C@H](CC[C@]3(C)[C@@H]([C@H](C)CCC(=O)N[C@H](CS(=O)(=O)O)c4ccccc4)CC[C@@H]23)[C@@]2(C)CC[C@@H](O)C[C@@H]12 [NC40018] ; wanted: its IC50
< 0.05 µM

# input compound: CC[C@H]1[C@@H](O)[C@@H]2[C@H](CC[C@]3(C)[C@@H]([C@H](C)CCC(=O)N(C)CCS(=O)(=O)O)CC[C@@H]23)[C@@]2(C)CC[C@@H](O)C[C@@H]12 [NC40004] ; wanted: its IC50
≥ 0.2 µM
